- Target or system: Cannabinoid receptor 1 (Homo sapiens, UniProt P21554)
- Sequence (P21554 whole entry): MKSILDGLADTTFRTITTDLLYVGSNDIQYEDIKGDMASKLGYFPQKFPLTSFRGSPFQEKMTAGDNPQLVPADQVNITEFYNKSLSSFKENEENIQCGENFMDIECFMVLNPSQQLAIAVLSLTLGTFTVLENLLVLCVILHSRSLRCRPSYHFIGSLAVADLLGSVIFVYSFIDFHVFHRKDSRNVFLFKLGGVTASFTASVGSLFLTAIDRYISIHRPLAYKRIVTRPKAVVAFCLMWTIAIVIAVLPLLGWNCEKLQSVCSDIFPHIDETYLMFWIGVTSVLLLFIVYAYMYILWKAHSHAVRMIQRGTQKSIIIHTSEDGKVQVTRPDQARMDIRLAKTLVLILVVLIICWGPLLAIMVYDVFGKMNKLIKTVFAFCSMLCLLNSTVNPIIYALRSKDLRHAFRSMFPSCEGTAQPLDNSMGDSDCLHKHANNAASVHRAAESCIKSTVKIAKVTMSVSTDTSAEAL
- Test summary: Displacement of [3H]CP55940 from human recombinant CB1 receptor expressed in CHO cells after 2 hrs by liquid scintillation counting
- Type: cell-based
pKi: −log10 of the molar value.
Experimental endpoint: pKi

Smiles code: C=CC(C)(C)[C@@]12C[C@H]3C(=O)N4[C@@H](C[C@@]5(C(C)(C)C=C)c6ccccc6N[C@@H]45)C(=O)N3[C@@H]1Nc1ccccc12
Obs value: 6.75

Values from ChEMBL document CHEMBL2021922
